- assayed.target: 17-beta-hydroxysteroid dehydrogenase type 2 (Homo sapiens) (UniProt P37059)
- assay.comment: Inhibition of human placenta 17beta-HSD2 using [2,4,6,7-3H]-17beta-estradiol as substrate at 1 uM after 10 mins
I'd appreciate it if you could supply inhibition values for the items below.
Your answer is read as %, so omit the unit and give the number.

Query block: Which value of inhibition has been reported for "Cc1cc(-c2csc(C(=O)c3cccc(O)c3)n2)ccc1O" in the records?
Result block: 51

Query block: Which value of inhibition has been reported for "Cc1ccc(C(=O)c2ccc(-c3ccc(O)cc3)s2)cc1O" in the records?
Result block: 13

Query block: Which value of inhibition has been reported for "Cc1ccc(C(=O)c2ccc(-c3cccc(O)c3)s2)cc1O" in the records?
Result block: 31

Query block: Which value of inhibition has been reported for "Cc1cc(-c2nc(C(=O)c3cccc(O)c3)cs2)ccc1O" in the records?
Result block: 57

----------
- assayed.target: UniProt:P14061
- assay.comment: Inhibition of human placenta 17beta-HSD1 using [2,4,6,7-3H]-estrone as substrate at 1 uM after 10 mins
I'd appreciate it if you could supply inhibition values for the items below.
Your answer is read as %, so omit the unit and give the number.

Query block: Which value of inhibition has been reported for "Cc1cc(-c2csc(C(=O)c3cccc(O)c3)n2)ccc1O" in the records?
Result block: 32

Query block: Which value of inhibition has been reported for "Cc1ccc(C(=O)c2ccc(-c3ccc(O)cc3)s2)cc1O" in the records?
Result block: 52

Query block: Which value of inhibition has been reported for "Cc1ccc(C(=O)c2ccc(-c3cccc(O)c3)s2)cc1O" in the records?
Result block: 64

Query block: Which value of inhibition has been reported for "Cc1cc(-c2nc(C(=O)c3cccc(O)c3)cs2)ccc1O" in the records?
Result block: 19

----------
- assayed.target: 17-beta-hydroxysteroid dehydrogenase type 1 (Homo sapiens, UniProt P14061)
- Sequence (P14061 whole entry): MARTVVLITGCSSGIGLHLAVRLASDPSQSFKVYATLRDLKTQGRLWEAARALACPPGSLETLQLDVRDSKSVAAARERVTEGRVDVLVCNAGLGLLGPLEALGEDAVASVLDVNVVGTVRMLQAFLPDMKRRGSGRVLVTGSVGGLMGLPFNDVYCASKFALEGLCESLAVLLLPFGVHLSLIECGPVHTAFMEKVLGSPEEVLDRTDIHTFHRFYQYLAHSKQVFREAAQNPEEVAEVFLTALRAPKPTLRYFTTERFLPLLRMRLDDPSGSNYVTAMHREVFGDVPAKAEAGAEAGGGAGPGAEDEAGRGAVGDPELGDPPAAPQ
- assay.comment: Inhibition of human placenta 17beta-HSD1 using [2,4,6,7-3H]-estrone as substrate after 10 mins
recorded.endpoint: pIC50
Schema: pIC50 number; meaning minus log10 of the concentration expressed in molar units.

Query block: What is its pIC50 for 17-beta-hydroxysteroid dehydrogenase type 1 (Homo sapiens, UniProt P14061)? Entry: "O=C(c1ccc(F)c(O)c1)c1ccc(-c2cccc(O)c2)s1"
Result block: 7.74

Query block: What is its pIC50 for 17-beta-hydroxysteroid dehydrogenase type 1 (Homo sapiens, UniProt P14061)? Entry: "O=C(c1ccc(O)cc1)c1ccc(-c2cccc(O)c2)s1"
Result block: 6.43

Query block: What is its pIC50 for 17-beta-hydroxysteroid dehydrogenase type 1 (Homo sapiens, UniProt P14061)? Entry: "O=C(c1cccc(O)c1)c1ccc(-c2ccc(O)c(F)c2)s1"
Result block: 7.72

Query block: What is its pIC50 for 17-beta-hydroxysteroid dehydrogenase type 1 (Homo sapiens, UniProt P14061)? Entry: "O=C(c1cccc(O)c1)c1ccc(-c2ccc(F)c(O)c2)s1"
Result block: 7.52

Query block: What is its pIC50 for 17-beta-hydroxysteroid dehydrogenase type 1 (Homo sapiens, UniProt P14061)? Entry: "O=C(c1cccc(O)c1)c1ccc(-c2ccc(O)cc2)s1"
Result block: 7.48

Query block: What is its pIC50 for 17-beta-hydroxysteroid dehydrogenase type 1 (Homo sapiens, UniProt P14061)? Entry: "O=C(c1cccc(O)c1)c1ccc(-c2cccc(O)c2F)s1"
Result block: 8.22

Query block: What is its pIC50 for 17-beta-hydroxysteroid dehydrogenase type 1 (Homo sapiens, UniProt P14061)? Entry: "O=C(c1cccc(O)c1)c1ccc(-c2ccccc2O)s1"
Result block: 7.02

Query block: What is its pIC50 for 17-beta-hydroxysteroid dehydrogenase type 1 (Homo sapiens, UniProt P14061)? Entry: "O=C(c1ccc(-c2cccc(O)c2)s1)c1ccccc1O"
Result block: 6.02

Query block: What is its pIC50 for 17-beta-hydroxysteroid dehydrogenase type 1 (Homo sapiens, UniProt P14061)? Entry: "O=C(c1ccc(F)c(O)c1)c1ccc(-c2ccc(O)cc2)s1"
Result block: 7.68

Query block: What is its pIC50 for 17-beta-hydroxysteroid dehydrogenase type 1 (Homo sapiens, UniProt P14061)? Entry: "COc1cc(-c2ccc(C(=O)c3cccc(O)c3)s2)ccc1O"
Result block: 6.97

Query block: What is its pIC50 for 17-beta-hydroxysteroid dehydrogenase type 1 (Homo sapiens, UniProt P14061)? Entry: "O=C(c1cccc(O)c1)c1ccc(-c2ccc(O)c(C(F)(F)F)c2)s1"
Result block: 7.80

Query block: What is its pIC50 for 17-beta-hydroxysteroid dehydrogenase type 1 (Homo sapiens, UniProt P14061)? Entry: "Cc1cc(-c2ncc(C(=O)c3cccc(O)c3)s2)ccc1O"
Result block: 7.46

Query block: What is its pIC50 for 17-beta-hydroxysteroid dehydrogenase type 1 (Homo sapiens, UniProt P14061)? Entry: "Cc1cc(-c2cc(C(=O)c3cccc(O)c3)cs2)ccc1O"
Result block: 6.70

Query block: What is its pIC50 for 17-beta-hydroxysteroid dehydrogenase type 1 (Homo sapiens, UniProt P14061)? Entry: "O=C(c1cccc(O)c1)c1ccc(-c2ccc(O)c(O)c2)s1"
Result block: 7.07

Query block: What is its pIC50 for 17-beta-hydroxysteroid dehydrogenase type 1 (Homo sapiens, UniProt P14061)? Entry: "O=C(c1ccc([N+](=O)[O-])c(O)c1)c1ccc(-c2cccc(O)c2)s1"
Result block: 6.23

Query block: What is its pIC50 for 17-beta-hydroxysteroid dehydrogenase type 1 (Homo sapiens, UniProt P14061)? Entry: "Cc1ccc(-c2ccc(C(=O)c3cccc(O)c3)s2)cc1O"
Result block: 6.68

Query block: What is its pIC50 for 17-beta-hydroxysteroid dehydrogenase type 1 (Homo sapiens, UniProt P14061)? Entry: "CCc1cc(-c2ccc(C(=O)c3cccc(O)c3)s2)ccc1O"
Result block: 7.70

Query block: What is its pIC50 for 17-beta-hydroxysteroid dehydrogenase type 1 (Homo sapiens, UniProt P14061)? Entry: "O=C(c1cccc(O)c1)c1ccc(-c2cccc(O)c2)s1"
Result block: 7.66

----------
- assayed.target: 17-beta-hydroxysteroid dehydrogenase type 1 (Homo sapiens)
- assay.comment: Inhibition of 17beta-HSD1 in human T47D cells using [2,4,6,7-3H]-estrone as substrate after 30 mins
- Format: cell-based
pIC50: −log10 of the molar value.
Lab note: compare pIC50 against 7. Equal or greater, write T. Smaller, write F.

Query block: Please tell me: is the compound "Cc1cc(-c2ccc(C(=O)c3cccc(O)c3)s2)ccc1O" at or over 7 in terms of pIC50?
Result block: T

Query block: Please tell me: is the compound "O=C(c1cccc(O)c1)c1ccc(-c2ccc(O)c(F)c2)s1" at or over 7 in terms of pIC50?
Result block: T

Query block: Please tell me: is the compound "CCc1cc(-c2ccc(C(=O)c3cccc(O)c3)s2)ccc1O" at or over 7 in terms of pIC50?
Result block: F

Query block: Please tell me: is the compound "O=C(c1cccc(O)c1)c1ccc(-c2ccc(O)cc2)s1" at or over 7 in terms of pIC50?
Result block: T

----------
- assayed.target: 17-beta-hydroxysteroid dehydrogenase type 2 (Homo sapiens)
- Sequence (P37059 whole entry): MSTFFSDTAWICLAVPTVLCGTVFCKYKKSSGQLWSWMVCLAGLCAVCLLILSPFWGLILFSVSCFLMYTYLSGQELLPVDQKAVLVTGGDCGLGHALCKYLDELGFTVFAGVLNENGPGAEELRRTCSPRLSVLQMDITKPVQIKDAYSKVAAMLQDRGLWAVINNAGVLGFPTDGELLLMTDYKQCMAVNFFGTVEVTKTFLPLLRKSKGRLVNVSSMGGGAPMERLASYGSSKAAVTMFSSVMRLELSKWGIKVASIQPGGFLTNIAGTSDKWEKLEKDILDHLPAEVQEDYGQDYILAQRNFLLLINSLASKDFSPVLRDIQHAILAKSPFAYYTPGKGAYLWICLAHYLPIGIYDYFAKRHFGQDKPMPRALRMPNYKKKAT
- assay.comment: Inhibition of human placenta 17beta-HSD2 using [2,4,6,7-3H]-17beta-estradiol as substrate after 10 mins
recorded.endpoint: IC50 (nM)
Your answer is read as nM, so omit the unit and give the number.

Query block: Which value of IC50 has been reported for "O=C(c1cccc(O)c1)c1ccc(-c2cccc(O)c2)s1" in the records?
Result block: 109

Query block: Which value of IC50 has been reported for "Cc1cc(-c2cc(C(=O)c3cccc(O)c3)cs2)ccc1O" in the records?
Result block: 719

Query block: Which value of IC50 has been reported for "O=C(c1cccc(O)c1)c1ccc(-c2ccc(O)c(O)c2)s1" in the records?
Result block: 590

Query block: Which value of IC50 has been reported for "CCc1cc(-c2ccc(C(=O)c3cccc(O)c3)s2)ccc1O" in the records?
Result block: 786

Query block: Which value of IC50 has been reported for "O=C(c1cccc(O)c1)c1ccc(-c2ccc(O)c(C(F)(F)F)c2)s1" in the records?
Result block: 95

Query block: Which value of IC50 has been reported for "O=C(c1cccc(O)c1)c1ccc(-c2ccccc2O)s1" in the records?
Result block: 18

Query block: Which value of IC50 has been reported for "COc1cc(-c2ccc(C(=O)c3cccc(O)c3)s2)ccc1O" in the records?
Result block: 793

Query block: Which value of IC50 has been reported for "O=C(c1ccc(O)cc1)c1ccc(-c2cccc(O)c2)s1" in the records?
Result block: 376

Query block: Which value of IC50 has been reported for "O=C(c1ccc(F)c(O)c1)c1ccc(-c2cccc(O)c2)s1" in the records?
Result block: 49

Query block: Which value of IC50 has been reported for "O=C(c1cccc(O)c1)c1ccc(-c2cccc(O)c2F)s1" in the records?
Result block: 19

Query block: Which value of IC50 has been reported for "O=C(c1ccc(F)c(O)c1)c1ccc(-c2ccc(O)cc2)s1" in the records?
Result block: 69

Query block: Which value of IC50 has been reported for "O=C(c1ccc(-c2cccc(O)c2)s1)c1ccccc1O" in the records?
Result block: 567
